Target: LAG3/MHCII (Homo sapiens)
Sequence (P18627 23-450 limits assumed, species assumed): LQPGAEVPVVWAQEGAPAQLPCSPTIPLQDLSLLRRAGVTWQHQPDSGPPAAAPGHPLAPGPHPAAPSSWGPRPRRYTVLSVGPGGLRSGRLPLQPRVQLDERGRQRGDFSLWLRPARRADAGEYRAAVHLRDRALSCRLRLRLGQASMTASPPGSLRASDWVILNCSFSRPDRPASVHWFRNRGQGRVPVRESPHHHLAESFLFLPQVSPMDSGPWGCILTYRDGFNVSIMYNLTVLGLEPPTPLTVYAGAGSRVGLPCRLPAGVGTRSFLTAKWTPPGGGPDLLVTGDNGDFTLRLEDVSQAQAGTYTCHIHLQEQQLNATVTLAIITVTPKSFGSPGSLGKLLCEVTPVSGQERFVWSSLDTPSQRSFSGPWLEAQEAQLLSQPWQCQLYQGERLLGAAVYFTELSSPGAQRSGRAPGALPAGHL
Assay: HTRF binding inhibition of LAG3 and its ligand MHCII
Conditions: binding inhibition LAG3/MHCII
pIC50: −log10 of the molar value.
Record Satisfied whenever pIC50 is at 5 or higher; record Not satisfied when lower.

molecule: COCCCCOc1ccc2cc1-c1cc(ccc1OCCCCOC)C(=O)CCCCCC2=O [Compound 7]
discrete label: Not satisfied
//
molecule: CCCCCCOc1ccc(C(=O)NCCCCN)cc1-c1cc(C(=O)OC)ccc1OCCCCCC [Compound 12]
discrete label: Not satisfied
//
molecule: CCCCCCOc1ccc2cc1-c1cc(ccc1OCCCCCC)C(=O)CCCCCC2=O [Compound 4]
discrete label: Not satisfied
//
molecule: CCCCCOc1ccc2cc1-c1cc(ccc1OCCCCC)C(=O)CCCCCC2=O [Compound 5]
discrete label: Not satisfied
//
molecule: CCCCCCOc1ccc(C(=O)NCCCCNC(=O)C(F)(F)F)cc1-c1cc(C(=O)NCCCCNC(=O)C(F)(F)F)ccc1OCCCCCC [Compound 13]
discrete label: Satisfied
//
molecule: CCCCCCCOc1ccc2cc1-c1cc(ccc1OCCCCCCC)C(=O)CCCCCC2=O [Compound 6]
discrete label: Not satisfied
//
molecule: O=C1CCCCCC(=O)c2ccc(OC3CCCC3)c(c2)-c2cc1ccc2O [Compound 3]
discrete label: Not satisfied
//
molecule: CCCCCCOc1ccc(C(=O)O)cc1-c1cc(C(=O)NCCCNC(=O)C(F)(F)F)ccc1OCCCCCC [Compound 9]
discrete label: Satisfied

----------
Biological target: Mouse LAG3 protein (Mus musculus)
Sequence (Q61790 24-521): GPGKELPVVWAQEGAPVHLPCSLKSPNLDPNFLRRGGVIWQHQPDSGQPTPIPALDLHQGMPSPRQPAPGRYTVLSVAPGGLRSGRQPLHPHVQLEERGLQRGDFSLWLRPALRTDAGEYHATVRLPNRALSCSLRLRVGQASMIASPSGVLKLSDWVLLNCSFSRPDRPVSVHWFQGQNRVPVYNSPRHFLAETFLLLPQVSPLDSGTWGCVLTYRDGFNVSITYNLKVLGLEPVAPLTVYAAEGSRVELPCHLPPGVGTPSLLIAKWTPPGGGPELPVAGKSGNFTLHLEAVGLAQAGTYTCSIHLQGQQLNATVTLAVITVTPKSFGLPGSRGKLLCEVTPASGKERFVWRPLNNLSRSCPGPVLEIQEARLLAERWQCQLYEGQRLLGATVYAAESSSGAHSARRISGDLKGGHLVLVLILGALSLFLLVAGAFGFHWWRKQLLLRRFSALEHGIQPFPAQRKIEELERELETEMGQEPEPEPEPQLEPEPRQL
Assay: SPR interaction assay, CM5 chip amino coupling, mouse LAG3
Details: ligand Mouse LAG3 protein
pKd: −log10 of the molar value.

smiles structure: CCCCCCOc1ccc2cc1-c1cc(ccc1OCCCCCC)C(=O)CCCCCC2=O
experimental target: Mouse LAG3 protein (Mus musculus)
pKd: 4.88
//
smiles structure: CCCCCCOc1ccc(C(=O)O)cc1-c1cc(C(=O)NCCCCNC(=O)C(F)(F)F)ccc1OCCCCCC
experimental target: Mouse LAG3 protein (Mus musculus)
pKd: 5.27

----------
Target: Human FGL1 protein (Homo sapiens, UniProt Q08830)
Sequence (Q08830 23-312): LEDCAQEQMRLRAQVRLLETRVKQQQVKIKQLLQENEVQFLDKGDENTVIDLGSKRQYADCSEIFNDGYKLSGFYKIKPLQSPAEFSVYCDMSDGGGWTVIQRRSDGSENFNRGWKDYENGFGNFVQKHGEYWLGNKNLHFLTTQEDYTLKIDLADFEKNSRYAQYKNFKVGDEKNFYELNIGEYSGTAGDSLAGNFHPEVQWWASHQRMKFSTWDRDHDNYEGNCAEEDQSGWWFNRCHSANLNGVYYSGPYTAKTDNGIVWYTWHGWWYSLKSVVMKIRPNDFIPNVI
Test: SPR interaction assay, human FGL1
Type: binding
Conditions: SPR, ligand FGL1 protein; read-out: KD
This section presents compounds with their documented Kd values.
measured parameter: Kd (µM)

smiles structure: CCCCCCOc1ccc2cc1-c1cc(ccc1OCCCCCC)C(=O)CCCCCC2=O
readout value: 23.2
//
smiles structure: CCCCCCOc1ccc(C(=O)O)cc1-c1cc(C(=O)NCCCCNC(=O)C(F)(F)F)ccc1OCCCCCC
readout value: 15.7

Data origin, for the record: patent EP4527828A1
